Consider the following compounds and their measured melting point readings.

Which measured melting point value corresponds to CN(C(=O)c1c(Cl)cccc1Cl)c1cc(-c2ccc(Cl)cc2)on1 ? 175 to 178 °C

---
Which measured melting point value corresponds to Clc1cccc2c1sc1ncnn12 ? 203 °C

Item: CC(C)(C)N1CC(COc2cccc3c(S)nccc23)OC1=O (stereo not given) 264 to 269 °C

Item: COc1ccc(-n2cc(C)cc2-c2ccc(S(C)(=O)=O)cc2)cc1 154 to 160 °C

Item: COc1ccc2c(OC)c(C(C)C)cc(OC)c2c1 80 to 81.5 °C

Item: O=C(N[C@H](Cc1ccc(C(F)(F)F)cc1)[C@@H](O)c1ccc(F)cc1)c1ccc(Oc2ccccc2)cc1 (racemic) 186 to 187 °C

Item: CCC(=O)CSc1cc(C(C)(C)C)c(O)c(C(C)(C)C)c1 55 to 57 °C

Item: CCCCCCCCCCCCCCCc1cccc(OCC#CC(=O)C(F)(F)F)c1 35 to 36 °C

Item: COC(=O)CCCCCCCCc1ccc(O)cc1 52 to 54 °C

Item: c1ccc(SCCCSc2nnnn2-c2ccccc2)cc1 57 to 59 °C
